Assay: Clearance in dog at 1 mg/kg, iv
Format: ADME, organism-based, Canis lupus familiaris
Design: dose 1 mg/kg, route intravenous
Settings: in vivo

smiles-text | clearance (mL/min/kg)
CC(=O)Nc1nc2c(Oc3cc(N4CCN([C@H](C)c5ccc(F)cc5)CC4)ncn3)cccc2s1 | 40

---

Assay: Clearance in Sprague-Dawley rat at 1 mg/kg, iv up to 6 hrs
Assay type: ADME, organism-based
Parameters: dose 1 mg/kg, route intravenous
Conditions: in vivo
readout-name: clearance

molecule | assay-value
CC(=O)Nc1nc2c(Oc3cc(N4CCN(c5ccccc5)CC4)ncn3)cccc2s1 | 16.7 mL/min/kg
CC(=O)Nc1nc2c(Oc3cc(N4CCN([C@H](C)c5ccc(F)cc5)CC4)ncn3)cccc2s1 | 13.3 mL/min/kg
CC(=O)Nc1nc2c(Oc3cc(N4CCN(C(C)c5ccccc5)CC4)ncn3)cccc2s1 (centres undefined) | 65 mL/min/kg
CC(=O)Nc1nc2c(Oc3cc(N4CCN(C(C)c5ccc(F)cc5)CC4)ncn3)cccc2s1 (centres undefined) | 18.3 mL/min/kg

---

Recorded half-life values for a group of compounds are listed next.
Test: Half life in Sprague-Dawley rat at 1 mg/kg, iv
Format: ADME, organism-based
Parameters: dose 1 mg/kg, route intravenous
Details: in vivo
readout-name: half-life

compound | readout-name | assay-value
CC(=O)Nc1nc2c(Oc3cc(N4CCN([C@H](C)c5ccc(F)cc5)CC4)ncn3)cccc2s1 | half-life | 2.7 h
CC(=O)Nc1nc2c(Oc3cc(N4CCN([C@@H](C)c5ccc(F)cc5)CC4)ncn3)cccc2s1 | half-life | 2.5 h
CC(=O)Nc1nc2c(Oc3cc(N4CCN(C(C)c5ccc(C(F)(F)F)cc5)CC4)ncn3)cccc2s1 (centres undefined) | half-life | 2.7 h
CC(=O)Nc1nc2c(Oc3cc(N4CCN(C(C)c5ccc(F)cc5)CC4)ncn3)cccc2s1 (centres undefined) | half-life | 2.4 h

---

Test: Oral bioavailability in monkey at 3 mg/kg
Assay type: ADME, organism-based, Macaca mulatta
Details: rhesus monkey, in vivo
readout-name: bioavailability (%)

smiles-text | assay-value
CC(=O)Nc1nc2c(Oc3cc(N4CCN([C@H](C)c5ccc(F)cc5)CC4)ncn3)cccc2s1 | 12
